system: P. falciparum NF54; test: antimalarial activity, P. falciparum NF54 parasites in vitro; type: cell-based; conditions: Plasmodium falciparum; P. falciparum NF54 parasites in vitro; read-out: Antimalarial Activity IC50
Parameter pIC50: see the listing below.
Quick note: pIC50 values are minus log10 of concentrations in mol/L.

Known pIC50 results, listed for orientation:
Fc1ccc(C23CCC(c4ccc(F)cc4)(CC2)OO3)cc1 [Table 5, R = F]: 7.20
Cc1ccc(C23C=CC(c4ccc(C)cc4)(CC2)OO3)cc1 [R = Me, R' = Me]: 6.85

The measured pIC50 associated with c1ccc(C23CCCC(c4ccccc4)(CC2)OO3)cc1 [Ar = Ph, X = CH2] reads 7.05

# compound C[C@@H]1CC[C@H]2[C@@H](C)C(=O)O[C@@H]3O[C@@]4(C)CC[C@@H]1[C@]32OO4 [Artemisinin] ; its pIC50 = 7.96

Measured pIC50, Fc1ccc(C23CCCC(c4ccccc4)(CC2)OO3)cc1 (stereo not drawn) [Table 6, R = F] : 7.38

All values here come from patent US5817692A.
